Numbers sourced from PubChem BioAssay.

subjectOfTest: ATP-binding cassette sub-family B member 6 (Homo sapiens) (UniProt Q9NP58)
Sequence (Q9NP58 whole entry, looked up): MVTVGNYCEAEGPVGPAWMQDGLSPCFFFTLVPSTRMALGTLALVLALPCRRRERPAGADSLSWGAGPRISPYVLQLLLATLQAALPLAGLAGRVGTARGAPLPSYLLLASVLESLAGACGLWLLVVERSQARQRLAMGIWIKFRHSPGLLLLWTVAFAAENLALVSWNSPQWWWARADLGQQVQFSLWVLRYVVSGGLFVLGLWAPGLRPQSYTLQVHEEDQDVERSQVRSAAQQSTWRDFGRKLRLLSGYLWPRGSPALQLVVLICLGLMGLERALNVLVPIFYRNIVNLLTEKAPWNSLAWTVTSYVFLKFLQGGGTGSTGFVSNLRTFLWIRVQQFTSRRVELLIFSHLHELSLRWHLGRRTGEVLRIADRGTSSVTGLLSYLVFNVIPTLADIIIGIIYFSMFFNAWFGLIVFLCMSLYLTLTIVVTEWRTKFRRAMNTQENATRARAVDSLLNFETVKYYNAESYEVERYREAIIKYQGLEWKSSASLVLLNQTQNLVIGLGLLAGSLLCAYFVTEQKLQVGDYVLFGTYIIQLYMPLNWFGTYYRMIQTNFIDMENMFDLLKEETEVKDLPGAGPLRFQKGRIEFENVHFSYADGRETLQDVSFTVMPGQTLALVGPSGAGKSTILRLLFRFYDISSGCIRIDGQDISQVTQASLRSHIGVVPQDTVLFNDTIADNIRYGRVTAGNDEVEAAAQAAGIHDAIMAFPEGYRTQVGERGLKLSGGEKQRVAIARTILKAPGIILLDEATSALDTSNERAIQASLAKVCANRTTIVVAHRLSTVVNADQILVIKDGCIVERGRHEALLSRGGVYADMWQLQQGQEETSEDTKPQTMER
assayProcedure: blockers of ABCB6-driven porphyrin uptake – K562-ABCB6 cells, flow cytometry, validation set, pilot screen (AID 588550);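 further: 0% = DMSO wells and 100% = benzethonium chloride 70 µM positive control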
measurementParameters: K562-ABCB6 porphyrin accumulation, 1 h, at 10 µM, hits give high values
Use 1 when the recorded inhibition is no lower than -10%; use 0 when it is lower.

{"sampleSmiles": "COc1cc2c(cc1OC)C(c1ccccc1)=NCC2", "class": 1}
{"sampleSmiles": "CC1(C)O[C@@H]2C[C@H]3[C@@H]4C[C@H](F)C5=CC(=O)C=C[C@]5(C)[C@@]4(F)[C@@H](O)C[C@]3(C)[C@]2(C(=O)CO)O1", "class": 1}
{"sampleSmiles": "O=C(NC(=S)N1CCCCC1)c1cccnc1", "class": 0}
{"sampleSmiles": "CC(C)CN(C)Cc1c(C(=O)N2CCc3ccccc3C2)nc2ccc(Cl)cn12", "class": 1}
